Below, each of the compounds is paired with its reported IC50 value.
Tested on: LG0703-F498-PDC complex spheroid growth
Assay details: Anticancer human tumor LG0703-F498-PDC patient-derived lung adenocarcinoma cell line growth inhibition [AhR]
Protocol conditions: curve of first compound; second compound 0.316 µM

[
  {
    "Compound": "CC(C)c1c(-c2ccccc2)nc2c(C#N)c[nH]n2c1=O + Cc1ccccc1N=Nc1ccc(NC(=O)c2ccnn2C)c(C)c1",
    "IC50": "> 10 µM"
  },
  {
    "Compound": "CC(C)c1c(-c2ccccc2)nc2c(C#N)c[nH]n2c1=O + CC(CO)NC(=O)c1cc(-c2ccc(Cl)cc2)nn(-c2cnn(C)c2)c1=O",
    "IC50": "> 10 µM"
  }
]

Now let's try a different one.
QUERY: Report IC50 for CCN(c1cc(-c2ccc(CN3CCOCC3)cc2)cc(C(=O)NCc2c(C)cc(C)[nH]c2=O)c1C)C1CCOCC1 + CC(CO)NC(=O)c1cc(-c2ccc(Cl)cc2)nn(-c2cnn(C)c2)c1=O please.
RESULT: > 3 µM

----------
Tested on: LG0703-F498-PDC complex spheroid growth
Assay details: Anticancer human tumor LG0703-F498-PDC cell line growth inhibition [AhR];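 further: luminescence taken as a proxy for viable cell amount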
Protocol conditions: curve of first compound; second compound 3.16 µM
Readout name: IC50 (µM)

[
  {
    "Compound": "O=C(C=Cc1cccc(S(=O)(=O)Nc2ccccc2)c1)NO + Cc1ccccc1N=Nc1ccc(NC(=O)c2ccnn2C)c(C)c1",
    "Value units": "µM",
    "IC50": 0.901
  }
]

P. NS(=O)(=O)OCC1CC(n2ccc3c(NC4CCc5ccccc54)ncnc32)CC1O (stereo not given) + Cc1ccccc1N=Nc1ccc(NC(=O)c2ccnn2C)c(C)c1
Q. NS(=O)(=O)OCC1CC(n2ccc3c(NC4CCc5ccccc54)ncnc32)CC1O (stereo not given) + Cc1cncc(-c2nc(NCCc3c[nH]c4ccccc34)c3ncn(C(C)C)c3n2)c1
QUERY: Could you point out whether the larger IC50 belongs to P or to Q ? Refer to your chosen entry by its label in the reply.
RESULT: P

----------
Test system: LG0703-F498-PDC complex spheroid growth
Assay details: Anticancer human tumor LG0703-F498-PDC cell line growth inhibition [AhR];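 further: luminescence taken as a proxy for viable cell amount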;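 on viability, T/C: percent of DMSO vehicle control where 100% means growth equal to vehicle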
Protocol conditions: second compound 1 µM; first compound 0.316 µM; stronger effect = lower value
Below, each of the molecules is paired with its reported viability, T/C value.
Report the value in % with no unit label.

Worked examples, 5 molecules total:
[
  {
    "Molecule": "O=C(C=Cc1cccc(S(=O)(=O)Nc2ccccc2)c1)NO + Cc1cncc(-c2nc(NCCc3c[nH]c4ccccc34)c3ncn(C(C)C)c3n2)c1",
    "Value units": "%",
    "viability, T/C": 69.3
  },
  {
    "Molecule": "COc1ccc([C@@H](O)c2cc(-c3ncnc4cc(N5CCOCC5)ccc34)c(F)cc2Cl)nn1 + Cc1cncc(-c2nc(NCCc3c[nH]c4ccccc34)c3ncn(C(C)C)c3n2)c1",
    "Value units": "%",
    "viability, T/C": 103
  },
  {
    "Molecule": "CC(C)c1c(-c2ccccc2)nc2c(C#N)c[nH]n2c1=O + CC(CO)NC(=O)c1cc(-c2ccc(Cl)cc2)nn(-c2cnn(C)c2)c1=O",
    "Value units": "%",
    "viability, T/C": 83.8
  },
  {
    "Molecule": "NS(=O)(=O)OCC1CC(n2ccc3c(NC4CCc5ccccc54)ncnc32)CC1O (stereo unspecified) + Cc1cncc(-c2nc(NCCc3c[nH]c4ccccc34)c3ncn(C(C)C)c3n2)c1",
    "Value units": "%",
    "viability, T/C": 54
  },
  {
    "Molecule": "Nc1ccn(C2OC(CO)C(O)C2(F)F)c(=O)n1 (stereo unspecified) + CC(CO)NC(=O)c1cc(-c2ccc(Cl)cc2)nn(-c2cnn(C)c2)c1=O",
    "Value units": "%",
    "viability, T/C": 39.9
  }
]

QUERY: Which viability, T/C is reported with LG0703-F498-PDC complex spheroid growth for this entry: COc1cc(C2c3cc4c(cc3C(OC3OC5COC(C)OC5C(O)C3O)C3COC(=O)C23)OCO4)cc(OC)c1O (stereo unspecified) + CC(CO)NC(=O)c1cc(-c2ccc(Cl)cc2)nn(-c2cnn(C)c2)c1=O ?
RESULT: 101

The values you see were collected from PubChem BioAssay AID1919013.
